Test system: UO-31
Test description: NCI tumour cell line growth inhibition, 48 h
Calls of active or inactive are those of the source. No stated cut-off is given here; in the data, active = GI50 up to about 1.1 µM and inactive = higher.
Pick one: yes (1) = active, no (0) = inactive

* OC(Cn1cncn1)(Cn1cncn1)c1ccc(Cl)cc1Cl | no (0)
* CC(=O)c1cc2c(s1)C(=O)c1scc(C(C)=O)c1C2=O | yes (1)

IN: Entry Cc1ccccc1C(=O)c1ccccc1O : call = ?
OUT: no (0)

IN: Entry NC(=O)N/N=C(\Cc1nc2ccc(Cl)cc2nc1O)C(=O)Nc1ccc(Cl)cc1Cl : call = ?
OUT: no (0)

IN: Entry CC1(C)C[C@@H]2C1CCC1(C)CC2(O)CC[C@H]1O (stereo not given in full) : call = ?
OUT: no (0)

IN: Entry O=[N+]([O-])c1ccc(S(=O)(=O)Cc2ccccc2)c2nonc12 : call = ?
OUT: no (0)

IN: Entry COc1ccc(Cn2c3c(cc(OS(=O)(=O)C(F)(F)F)c2=O)Cc2ccccc2-3)cc1 : call = ?
OUT: no (0)

IN: Entry COc1ccc(-c2onc(-c3c(C)cc(C)cc3C)c2C2=NCCN2)cc1 : call = ?
OUT: no (0)

IN: Entry Cc1ccc2c(=O)cc(Cc3cccs3)[nH]c2n1 : call = ?
OUT: no (0)

IN: Entry O=C1[C@H]2ON(c3ccccc3)C(c3ccc(Cl)cc3Cl)[C@H]2C(=O)N1c1ccc(Cc2ccc(N3C(=O)[C@@H]4ON(c5ccccc5)C(c5ccc(Cl)cc5Cl)[C@@H]4C3=O)cc2)cc1 (stereo not given in full) : call = ?
OUT: no (0)
